// fraction unbound lookup, one value per entry
testDetails: Protein binding in mouse plasma
Assay type: ADME, cell-free
runParameters: read-out: PPB (converted)
Starred links: 1 amine or outer side, 2 acyl side, 3 side chain; linkers in the order of their positions; H or OH if unused. Non-standard residues stand in square brackets, D forms with d. Residues, ends and D or L forms follow the SMILES beside them. *: point of attachment. X6 = C[C@H](CO[C@H](CC1C[C@H]2CC[C@@H](C1)C2)[C@@H](C)C(=O)[*:2])N[*:1]; X3 = C[C@H](CO[C@H](CC1CC2(CCC2)C1)[C@@H](C)C(=O)[*:2])N[*:1]; X1 = CCCCCC[C@@H](OC[C@@H](C)N[*:1])[C@@H](C)C(=O)[*:2]; Cyclobutyl(trans-3-NH2) = N[C@H]1C[C@H](*)C1; Gly(cHept) = N[C@H](C(=O)O)C1CCCCCC1; NMeNva = CCC[C@H](NC)C(=O)O; X2 = NC[C@H]1C[C@H](*)C1; Dap = NC[C@H](N)C(=O)O; X5 = NCCCNCCC*
Just the number, please.

Request: Supply recorded fraction unbound for CCC[C@H]1C(=O)N[C@@H](C2CCCCCC2)C(=O)N[C@@H](CN)C(=O)N[C@@H](COCCCNCCCN)C(=O)N[C@H](C)CO[C@H](CC2C[C@H]3CC[C@@H](C2)C3)[C@@H](C)C(=O)N1C (some centres undefined) (cyclo([Dap]S(X5)[X6][NMeNva][Gly(cHept)])) here.
Response: 0.004

Request: Supply recorded fraction unbound for CCC[C@H]1C(=O)N[C@@H](C2CCCCCC2)C(=O)N[C@@H](CN)C(=O)N[C@@H](COCCCNCCCN)C(=O)N[C@H](C)CO[C@H](CC2CC3(CCC3)C2)[C@@H](C)C(=O)N1C (cyclo([Dap]S(X5)[X3][NMeNva][Gly(cHept)])) here.
Response: 0.001

Request: Supply recorded fraction unbound for CCCCCC[C@H]1OC[C@@H](C)NC(=O)[C@H](CO[C@H]2C[C@H](CN)C2)NC(=O)[C@H](CN)NC(=O)[C@H](C2CCCCCC2)NC(=O)[C@H](CCC)N(C)C(=O)[C@@H]1C (cyclo([Dap]S(X2)[X1][NMeNva][Gly(cHept)])) here.
Response: 0.011

Request: Supply recorded fraction unbound for CCC[C@H]1C(=O)N[C@@H](C2CCCCCC2)C(=O)N[C@@H](CN)C(=O)N[C@@H](CO[C@H]2C[C@H](N)C2)C(=O)N[C@H](C)CO[C@H](CC2C[C@H]3CC[C@@H](C2)C3)[C@@H](C)C(=O)N1C (stereo partly drawn) (cyclo([Dap]S(Cyclobutyl(trans-3-NH2))[X6][NMeNva][Gly(cHept)])) here.
Response: 0.003

The measured values listed here are drawn from ChEMBL document CHEMBL4665734.
